- Tested on: BT-549
- Experiment: Growth inhibition of human BT549 cells after 48 hrs by sulforhodamine B assay
- Format: functional
- Applied Conditions: BT-549, 48 h
Test Readout: GI50
# include the unit after the value

Check out these entries, answers already filled in.
>>> recorded_result("Cc1cc(O)cc(-c2nn(CC#N)cc2-c2ccnc(-c3ccc(N(C)C)cc3)c2)c1")
"2770 nM"
>>> recorded_result("Cc1cc(O)cc(-c2nn(CC#N)cc2-c2ccnc(-c3ccc(Oc4ccccc4)cc3)c2)c1")
"2660 nM"
>>> recorded_result("COc1cc(C)cc(-c2nn(CC#N)cc2-c2ccnc(-c3ccc(N(C)C)cc3)c2)c1")
"1620 nM"
>>> recorded_result("COc1cc(C)cc(-c2c(-c3ccnc(-c4ccc(N(C)C)cc4)c3)cnn2CC#N)c1")
"75.1 nM"
>>> recorded_result("COc1cc(C)cc(-c2nn(CC#N)cc2-c2ccc(-c3cccc(C(C)=O)c3)nc2)c1")
"2730 nM"

IN: Item COc1cc(C)cc(-c2c(-c3ccnc(-c4ccc(C(C)=O)cc4)c3)cnn2CC#N)c1 : provide GI50
OUT: 3120 nM

###

Parameter growth at 1 µM: see the listing below.
- Test system: SK-MEL-2
- Experiment: Cytotoxicity against human SK-MEL-2 cells assessed as cell growth at 1 uM after 48 hrs by sulforhodamine B assay
- Assay type: functional
- Applied Conditions: SK-MEL-2, 48 h, read-out: Activity
Write the value in % as a bare number.

Check out these entries, answers already filled in.
>>> recorded_result("COc1cc(C)cc(-c2c(-c3ccnc(-c4ccc(C(C)=O)cc4)c3)cnn2CC#N)c1")
34
>>> recorded_result("COc1cc(C)cc(-c2nn(CC#N)cc2-c2ccnc(-c3ccc(N(C)C)cc3)c2)c1")
23
>>> recorded_result("COc1cc(C)cc(-c2c(-c3ccnc(-c4ccc(N(C)C)cc4)c3)cnn2CC#N)c1")
11
>>> recorded_result("Cc1cc(O)cc(-c2nn(CC#N)cc2-c2ccnc(-c3ccc(N(C)C)cc3)c2)c1")
11
>>> recorded_result("Cc1cc(O)cc(-c2nn(CC#N)cc2-c2ccnc(-c3ccc(Oc4ccccc4)cc3)c2)c1")
6

IN: Item COc1cc(C)cc(-c2nn(CC#N)cc2-c2ccc(-c3cccc(C(C)=O)c3)nc2)c1 : provide growth at 1 µM
OUT: 22

###

- Test system: COLO 205
- Experiment: Cytotoxicity against human COLO205 cells assessed as cell growth at 10 uM
- Assay type: functional
- Applied Conditions: read-out: Activity
Test Readout: growth at 10 µM (%)
Write the value in % as a bare number.

Check out these entries, answers already filled in.
>>> recorded_result("COc1cc(C)cc(-c2nn(CC#N)cc2-c2ccnc(-c3ccc(N(C)C)cc3)c2)c1")
-73.2
>>> recorded_result("COc1cc(C)cc(-c2nn(CC#N)cc2-c2ccc(-c3cccc(C(C)=O)c3)nc2)c1")
-44.6
>>> recorded_result("COc1cc(C)cc(-c2c(-c3ccnc(-c4cccc(NC(C)=O)c4)c3)cnn2CC#N)c1")
93.5
>>> recorded_result("COc1cc(C)cc(-c2c(-c3ccnc(-c4ccc(N(C)C)cc4)c3)cnn2CC#N)c1")
-71.1
>>> recorded_result("Cc1cc(O)cc(-c2nn(CC#N)cc2-c2ccnc(-c3ccc(C#N)cc3)c2)c1")
66.1
>>> recorded_result("COc1cc(C)cc(-c2c(-c3ccnc(-c4ccc(C(C)=O)cc4)c3)cnn2CC#N)c1")
42.6

IN: Item Cc1cc(O)cc(-c2nn(CC#N)cc2-c2ccnc(-c3ccc(N(C)C)cc3)c2)c1 : provide growth at 10 µM
OUT: 38.9

IN: Item Cc1cc(O)cc(-c2nn(CC#N)cc2-c2ccnc(-c3ccc(Oc4ccccc4)cc3)c2)c1 : provide growth at 10 µM
OUT: 28.4

IN: Item COc1cc(C)cc(-c2nn(CC#N)cc2-c2ccnc(-c3ccc(C#N)cc3)c2)c1 : provide growth at 10 µM
OUT: 95.8

IN: Item Cc1cc(O)cc(-c2nn(CC#N)cc2-c2ccnc(-c3ccccc3)c2)c1 : provide growth at 10 µM
OUT: 108

IN: Item COc1cc(C)cc(-c2nn(CC#N)cc2-c2ccnc(-c3cccc(NC(C)=O)c3)c2)c1 : provide growth at 10 µM
OUT: 93.5

IN: Item COc1cc(C)cc(-c2nn(CC#N)cc2-c2ccnc(-c3ccc(Oc4ccccc4)cc3)c2)c1 : provide growth at 10 µM
OUT: 98.6

IN: Item COc1cc(C)cc(-c2nn(CC#N)cc2-c2ccnc(-c3ccc(C(C)=O)cc3)c2)c1 : provide growth at 10 µM
OUT: 66.8

###

- Test system: OVCAR-5
- Experiment: Growth inhibition of human OVCAR5 cells after 48 hrs by sulforhodamine B assay
- Format: functional
- Applied Conditions: OVCAR-5, 48 h
Test Readout: GI50 (µM)
Write the value in µM as a bare number.

IN: Item Cc1cc(O)cc(-c2nn(CC#N)cc2-c2ccnc(-c3ccc(N(C)C)cc3)c2)c1 : provide GI50
OUT: 1.49

IN: Item COc1cc(C)cc(-c2nn(CC#N)cc2-c2ccnc(-c3ccc(N(C)C)cc3)c2)c1 : provide GI50
OUT: 3.98

IN: Item Cc1cc(O)cc(-c2nn(CC#N)cc2-c2ccnc(-c3ccc(Oc4ccccc4)cc3)c2)c1 : provide GI50
OUT: 4.84

IN: Item COc1cc(C)cc(-c2nn(CC#N)cc2-c2ccc(-c3cccc(C(C)=O)c3)nc2)c1 : provide GI50
OUT: 2.43

###

- Test system: HCT-15
- Experiment: Cytotoxicity against human HCT15 cells assessed as cell growth at 0.01 uM after 48 hrs by sulforhodamine B assay
- Type: functional
- Applied Conditions: HCT-15, 48 h, read-out: Activity
Parameter growth at 0.01 µM: see the listing below.
Write the value in % as a bare number.

Check out these entries, answers already filled in.
>>> recorded_result("Cc1cc(O)cc(-c2nn(CC#N)cc2-c2ccnc(-c3ccc(N(C)C)cc3)c2)c1")
92
>>> recorded_result("Cc1cc(O)cc(-c2nn(CC#N)cc2-c2ccnc(-c3ccc(Oc4ccccc4)cc3)c2)c1")
96
>>> recorded_result("COc1cc(C)cc(-c2nn(CC#N)cc2-c2ccnc(-c3ccc(N(C)C)cc3)c2)c1")
92
>>> recorded_result("COc1cc(C)cc(-c2c(-c3ccnc(-c4ccc(C(C)=O)cc4)c3)cnn2CC#N)c1")
95
>>> recorded_result("COc1cc(C)cc(-c2c(-c3ccnc(-c4ccc(N(C)C)cc4)c3)cnn2CC#N)c1")
12

Here's the next entry for you.
IN: Item COc1cc(C)cc(-c2nn(CC#N)cc2-c2ccc(-c3cccc(C(C)=O)c3)nc2)c1 : provide growth at 0.01 µM
OUT: 100

###

Parameter growth at 10 µM: see the listing below.
- System: LOX IMVI
- Experiment: Cytotoxicity against human LOXIMVI cells assessed as cell growth at 10 uM
- Format: functional
- Applied Conditions: read-out: Activity
# include the unit after the value

Check out these entries, answers already filled in.
>>> recorded_result("COc1cc(C)cc(-c2nn(CC#N)cc2-c2ccc(-c3cccc(C(C)=O)c3)nc2)c1")
"25.4%"
>>> recorded_result("COc1cc(C)cc(-c2nn(CC#N)cc2-c2ccnc(-c3ccc(C#N)cc3)c2)c1")
"80.7%"
>>> recorded_result("COc1cc(C)cc(-c2nn(CC#N)cc2-c2ccnc(-c3ccc(C(C)=O)cc3)c2)c1")
"78.1%"

IN: Item COc1cc(C)cc(-c2nn(CC#N)cc2-c2ccnc(-c3ccc(Oc4ccccc4)cc3)c2)c1 : provide growth at 10 µM
OUT: 98%

IN: Item COc1cc(C)cc(-c2c(-c3ccnc(-c4ccc(C(C)=O)cc4)c3)cnn2CC#N)c1 : provide growth at 10 µM
OUT: 58.8%

IN: Item Cc1cc(O)cc(-c2nn(CC#N)cc2-c2ccnc(-c3ccc(Oc4ccccc4)cc3)c2)c1 : provide growth at 10 µM
OUT: 16.6%

IN: Item COc1cc(C)cc(-c2c(-c3ccnc(-c4cccc(NC(C)=O)c4)c3)cnn2CC#N)c1 : provide growth at 10 µM
OUT: 97.5%

IN: Item Cc1cc(O)cc(-c2nn(CC#N)cc2-c2ccnc(-c3ccc(C#N)cc3)c2)c1 : provide growth at 10 µM
OUT: 81.9%

###

- System: KM12
- Experiment: Cytotoxicity against human KM12 cells assessed as cell growth at 10 uM
- Assay type: functional
- Applied Conditions: read-out: Activity
Lab note: compare growth at 10 µM with 80%, writing satisfied if less and not satisfied if equal or more.

Consider the following illustrative entries.
>>> class_label("COc1cc(C)cc(-c2nn(CC#N)cc2-c2ccc(-c3cccc(C(C)=O)c3)nc2)c1")
"satisfied"
>>> class_label("COc1cc(C)cc(-c2nn(CC#N)cc2-c2ccnc(-c3cccc(NC(C)=O)c3)c2)c1")
"not satisfied"
>>> class_label("COc1cc(C)cc(-c2nn(CC#N)cc2-c2ccnc(-c3ccc(C(C)=O)cc3)c2)c1")
"not satisfied"

IN: Lab note: confirm whether the reported growth at 10 µM for this compound is below 80%, equality not counting. compound: Cc1cc(O)cc(-c2nn(CC#N)cc2-c2ccnc(-c3ccc(Oc4ccccc4)cc3)c2)c1
OUT: satisfied
